Listed here: items and their measured max activity.
- Procedure Text: NIH:OVCAR-3 ovarian cancer cell cytotoxicity, dose response, PAX8 inhibitor project, plate reader, dry powder samples (AID 743044)
- Conditions Used: NIH:OVCAR-3 ovarian cancer cell viability; at 35 µM, stronger effect = lower value unless noted
Measured potencies and affinities stand elsewhere. Inconclusive results are not listed. Activity calls are given as the source filed them. No rule for the calls is given here.

Molecule Smiles: C[C@@H]1CCCCO[C@@H](CN(C)C(=O)Nc2ccc(F)cc2)[C@H](C)CN([C@@H](C)CO)C(=O)c2cc(NC(=O)Nc3ccc(C(F)(F)F)cc3)ccc2O1
max activity: -4.11% (inactive)
//
Molecule Smiles: C[C@@H]1CN([C@H](C)CO)C(=O)Cc2cc(NC(=O)Nc3ccc(F)cc3)ccc2O[C@@H]1CN(C)Cc1ccc(Cl)c(Cl)c1
max activity: 27.5% (inactive)
//
Molecule Smiles: C[C@H](CO)N1C[C@H](C)[C@@H](CN(C)C(=O)Nc2ccc(F)cc2)OCc2ccccc2-c2c(n(C)c3ccccc23)C1=O
max activity: 31.5% (inactive)
//
Molecule Smiles: Cc1ccc(S(=O)(=O)Nc2ccc3c(c2)C(=O)N([C@@H](C)CO)C[C@@H](C)[C@@H](CN(C)S(=O)(=O)c2ccc(Cl)cc2)OCCCC[C@@H](C)O3)cc1
max activity: -15% (inactive)

###

- Procedure Text: small-molecule microarray binders of probe aNog, primary screen, biochemical, biotinylated probe, 635/667 nm fluorescence (AID 1115);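 also: probe is biotinylated aNog protein used at 0.15 µg/mL for 1 h at 4 C; z-score combines 667 nm fluorescence of each spot with its signal to noise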
- Conditions Used: higher = more signal
Listed here: items and their measured composite z-score.
Measured Metric: composite z-score

Compound: C=C[C@H](OC)[C@@H](OC(=O)Nc1ccc(OC)cc1)c1ccc(OC)c(O)c1
Measured Metric: composite z-score
Measured: -0.358

Compound: CCN(CC)c1ccc(N2CC=CC34O[C@@H]5C=CCOC(=O)[C@@H]5[C@H]3C(=O)N(C(C)CO)[C@@H]4C2=O)cc1 (some centres undefined)
Measured Metric: composite z-score
Measured: 0.166

Compound: COC(=O)C1=CC(CCCO)=CC(C2CC2)N(Cc2cc3c(cc2Br)OCO3)C=C1C(=O)OC (centres undefined)
Measured Metric: composite z-score
Measured: 0.842

Compound: COc1c(C)cc(-c2cc3c(c(CCc4ccccc4)n2)[Si](C(C)C)(C(C)C)OC3)cc1C
Measured Metric: composite z-score
Measured: 0.162

Compound: CO[C@H]1O[C@H](CO)[C@@H](OC(=O)Nc2ccccc2)[C@H](OC(=O)Nc2ccccc2-c2ccccc2)[C@@H]1OC(=O)Nc1ccccc1-c1ccccc1
Measured Metric: composite z-score
Measured: 1.59

Compound: CC1CC/C=C\[C@H]2OC34C=CCN(C(C)C)C(=O)[C@H]3N(C(CO)C(C)C)C(=O)[C@@H]4C2C(=O)O1 (some centres undefined)
Measured Metric: composite z-score
Measured: -0.178

Compound: O=C(NCc1ccccc1)[C@@H]1c2ccccc2C(=O)N(Cc2ccccc2Cl)[C@H]1c1ccc(CO)cc1
Measured Metric: composite z-score
Measured: 0.522

Compound: Cc1ccc(N2C(=O)c3ccccc3[C@](C)(C(=O)NCC(F)(F)F)[C@@H]2c2ccc(CO)cc2)nc1
Measured Metric: composite z-score
Measured: -0.136

Compound: C=C(C1=CCN(S(=O)(=O)c2ccc(C)cc2)C1)[C@@H](OC(C)=O)[C@@H]1CCCN1S(=O)(=O)c1ccccc1[N+](=O)[O-]
Measured Metric: composite z-score
Measured: 0.353

Compound: CN1C=C(C(=O)OCCS(C)(=O)=O)C(C(=O)OCCS(C)(=O)=O)=CC(CCCO)=CC1c1cccs1 (centres undefined)
Measured Metric: composite z-score
Measured: -0.036

Compound: CC(C)(C)OC(=O)CC[C@]1(C(=O)NCc2ccccc2)COC(c2ccc(OCCCO)cc2)=N1
Measured Metric: composite z-score
Measured: 1.31

Compound: COCCOC(=O)N1C(=O)[C@@]2(c3cc(C#CCNC(N)=O)ccc31)[C@H](C(=O)NC[C@H](O)c1ccccc1)[C@H]1C(=O)O[C@H](c3ccccc3)[C@H](c3ccccc3)N1[C@@H]2c1ccc(O)cc1
Measured Metric: composite z-score
Measured: -0.122

Compound: C[N+](C)(C)CCCC[C@@H]1NC(=O)[C@H]2C[C@@H](C(=O)NCCCCCN)[C@@H](c3cccc(OCCO)c3)N2C1=O
Measured Metric: composite z-score
Measured: 0.708

Compound: C=CCOC(=O)[C@H]1[C@@H]2C(=O)O[C@@H](c3ccccc3)[C@@H](c3ccccc3)N2[C@@H](c2ccc(OCCOC(=O)[C@H]3C[C@H]4C(=O)N5CCC[C@H]5C(=O)N4[C@H]3c3cccc(OCCO)c3)cc2)[C@]12C(=O)Nc1ccccc12
Measured Metric: composite z-score
Measured: 0.228

Compound: COC(=O)C1=CC(c2ccc(CO)cc2)=CC(c2cccs2)N(C)C=C1C(=O)OC (centres undefined)
Measured Metric: composite z-score
Measured: 0.603

Compound: CC(C)C[C@@H]1NC(=O)[C@@H]2C[C@H](C(=O)NCCCCCNC(=O)CS)[C@H](c3cccc(OCCO)c3)N2C1=O
Measured Metric: composite z-score
Measured: 0.418

Compound: CCCNC(=O)[C@@]1(Sc2ccc(C)cc2)CC(=O)N(Cc2cc(C(F)(F)F)cc(C(F)(F)F)c2)[C@@H]1c1ccc(CO)cc1I
Measured Metric: composite z-score
Measured: 0.573

Compound: COc1ccc([Si](C)(C)[C@H]2[C@H](CC(=O)N(CCO)Cc3ccccc3)O[C@@]3(C(=O)N(Cc4ccc(N5CCOC5=O)cc4)c4ccccc43)[C@@H]2C)cc1
Measured Metric: composite z-score
Measured: 0.473

Compound: CCOC(=O)C[C@H]1[C@H](OC(=O)c2ccc(C(=O)c3ccccc3)cc2)[C@@H](NC(=O)Cc2ccc(OC)cc2)c2cc(OCCCO)ccc2N1C(=O)Cc1ccc(OC)cc1
Measured Metric: composite z-score
Measured: 1.1

Compound: CC(C)(C)OC(=O)CC[C@@]12N=C(c3ccc(OCCCO)cc3)O[C@@H]1c1ccccc1CN(Cc1ccccc1)C2=O
Measured Metric: composite z-score
Measured: 0.36

Compound: C=CCN1C(=O)[C@@]2(O[C@@H](CCO)[C@H]([Si](C)(C)c3ccc(OC)cc3)[C@H]2C)c2cc(N3C(=O)c4cccc5cccc3c45)ccc21
Measured Metric: composite z-score
Measured: 0.272

Compound: C=C(/C(=C/C[C@H](OC(C)=O)c1cccc(OCCO)c1)c1cc(C(=O)OC)ccc1OC)C(C)C
Measured Metric: composite z-score
Measured: 0.209

Compound: COc1ccc([Si](C)(C)[C@H]2[C@H](CC(=O)N3Cc4ccccc4C[C@H]3CO)O[C@@]3(C(=O)N(Cc4cccc(N5C(=O)COc6ccccc65)c4)c4ccccc43)[C@@H]2C)cc1
Measured Metric: composite z-score
Measured: -0.0118

Compound: CC(C)NC(=O)[C@@H]1c2ccccc2C(=O)N(Cc2cc(F)cc(C(F)(F)F)c2)[C@H]1c1ccc(CO)cc1
Measured Metric: composite z-score
Measured: 0.27

Compound: C#CCOc1ccc(C[C@H]2C(=O)O[C@H](Cc3ccccc3)[C@H](/C=C/C3CC3)N2CC#C)cc1
Measured Metric: composite z-score
Measured: -0.433

Compound: C=C(C(=O)CC[C@H](OC(C)=O)c1ccc(CO)o1)C(C)C
Measured Metric: composite z-score
Measured: -0.309

Compound: [N-]=[N+]=NCc1ccccc1C[C@@]1(C(=O)NCc2ccccc2)N=C(c2ccc(OCCCO)cc2)O[C@@H]1c1ccccc1
Measured Metric: composite z-score
Measured: 0.868

Compound: CCCNC(=O)[C@@H]1c2ccccc2C(=O)N(Cc2cc(C(F)(F)F)cc(C(F)(F)F)c2)[C@H]1c1ccc(CO)cc1
Measured Metric: composite z-score
Measured: 0.527

Compound: COC(=O)c1c(CC[C@@H](CO)NC(=O)Nc2ccc(OC)cc2)oc(C(=O)Cc2ccccc2)c1C(=O)OC
Measured Metric: composite z-score
Measured: 0.068
